# System: E. coli (Ec)
# Type: cell-based
# Test Parameters: Ec
No end group written: not given here.

Substance: LAGLIVKWAGVR-NH2 [Peptide 3017, LAGLIVKWAGVR]
Assay System: E. coli (Ec)
Result Operator: >
MBIC E. coli / µg/mL: 64
--
Substance: LWQLWLKLKLKG-NH2 [Peptide 3013, LWQLWLKLKLKG]
Assay System: E. coli (Ec)
Result Operator: >
MBIC E. coli / µg/mL: 64
--
Substance: KKWQLLIKWKLR-NH2 [Peptide 3008, KKWQLLIKWKLR]
Assay System: E. coli (Ec)
Result Operator: =
MBIC E. coli / µg/mL: 4
--
Substance: IAWQLLWGWRVR-NH2 [Peptide 3022, IAWQLLWGWRVR]
Assay System: E. coli (Ec)
Result Operator: =
MBIC E. coli / µg/mL: 4
--
Substance: IKIIWKALGQVI-NH2 [Peptide 3024, IKIIWKALGQVI]
Assay System: E. coli (Ec)
Result Operator: =
MBIC E. coli / µg/mL: 2
--
Substance: LIVIQLLKKWWK-NH2 [Peptide 3020, LIVIQLLKKWWK]
Assay System: E. coli (Ec)
Result Operator: =
MBIC E. coli / µg/mL: 1
--
Substance: WQGWAKIWVVRI-NH2 [Peptide 3019, WQGWAKIWVVRI]
Assay System: E. coli (Ec)
Result Operator: =
MBIC E. coli / µg/mL: 2
--
Substance: RVKAIKWRKIVV-NH2 [Peptide 3012, RVKAIKWRKIVV]
Assay System: E. coli (Ec)
Result Operator: =
MBIC E. coli / µg/mL: 32
--
Substance: KIQRRAWKQWRK-NH2 [Peptide 3014, KIQRRAWKQWRK]
Assay System: E. coli (Ec)
Result Operator: =
MBIC E. coli / µg/mL: 64
--
Substance: AVKWLGWILAKK-NH2 [Peptide 3016, AVKWLGWILAKK]
Assay System: E. coli (Ec)
Result Operator: =
MBIC E. coli / µg/mL: 32
--
Substance: WKKVQWLKRLLL-NH2 [Peptide 3003, WKKVQWLKRLLL]
Assay System: E. coli (Ec)
Result Operator: =
MBIC E. coli / µg/mL: 2
--
Substance: RRQWRGWVRIWL-NH2 [Peptide 3005, RRQWRGWVRIWL]
Assay System: E. coli (Ec)
Result Operator: =
MBIC E. coli / µg/mL: 2
--
Substance: WVGVIIKWGLKL-NH2 [Peptide 3018, WVGVIIKWGLKL]
Assay System: E. coli (Ec)
Result Operator: =
MBIC E. coli / µg/mL: 2
--
Substance: KIVIRIILQVIK-NH2 [Peptide 3015, KIVIRIILQVIK]
Assay System: E. coli (Ec)
Result Operator: =
MBIC E. coli / µg/mL: 64
--
Substance: IQRWWKVWLKVI-NH2 [Peptide 3004, IQRWWKVWLKVI]
Assay System: E. coli (Ec)
Result Operator: =
MBIC E. coli / µg/mL: 2
--
Substance: RRIIKILLWKLR-NH2 [Peptide 3021, RRIIKILLWKLR]
Assay System: E. coli (Ec)
Result Operator: =
MBIC E. coli / µg/mL: 2
--
Substance: AVAKWALKLWKQ-NH2 [Peptide 3009, AVAKWALKLWKQ]
Assay System: E. coli (Ec)
Result Operator: =
MBIC E. coli / µg/mL: 32
--
Substance: VIKWLLKILRAI-NH2 [Peptide 3001, VIKWLLKILRAI]
Assay System: E. coli (Ec)
Result Operator: =
MBIC E. coli / µg/mL: 2
--
Substance: VQRIIWLRVKIV-NH2 [Peptide 3023, VQRIIWLRVKIV]
Assay System: E. coli (Ec)
Result Operator: =
MBIC E. coli / µg/mL: 1
--
Substance: ILVRWIRWRIQW-NH2 [Peptide 3002, ILVRWIRWRIQW]
Assay System: E. coli (Ec)
Result Operator: =
MBIC E. coli / µg/mL: 4
--
Substance: QLARLARVVWGL-NH2 [Peptide 3010, QLARLARVVWGL]
Assay System: E. coli (Ec)
Result Operator: =
MBIC E. coli / µg/mL: 32

###

# System: PBMCs
# Assay: Cytotoxicity towards PBMCs, lactate dehydrogenase (LDH) release assay (Tables 6, 7)
# Test Parameters: SPOT synthesized peptide ~25 μM, PBMCs from 3 human donors; Table 6
No end group written: not given here.
Experimental Endpoint: % Toxicity (LDH Release) (%)

Substance: LKLKAILKIIRV-NH2 [MILBFmax-1, LKLKAILKIIRV]
Value: 1.5
--
Substance: WKKVQWLKRLLL-NH2 [Peptide 3003, WKKVQWLKRLLL]
Value: 22.5
--
Substance: AVAKWALKLWKQ-NH2 [Peptide 3009, AVAKWALKLWKQ]
Value: −3.2
--
Substance: LAGLIVKWAGVR-NH2 [Peptide 3017, LAGLIVKWAGVR]
Value: 5.9
--
Substance: VIKVLIKRWLKL-NH2 [BFmax-9, VIKVLIKRWLKL]
Value: 7.4
--
Substance: IVKWIAQWKLVG-NH2 [Imax- 10]
Value: −1
--
Substance: GLIIKIIKKRLW-NH2 [IBFmax-15, GLIIKIIKKRLW]
Value: 25.1
--
Substance: IRILVLRKAIIV-NH2 [MILBFmax-9, IRILVLRKAIIV]
Value: 23.9
--
Substance: IAWQLLWGWRVR-NH2 [Peptide 3022, IAWQLLWGWRVR]
Value: −4.8
--
Substance: KVVWWKVIIKVL-NH2 [BFmax-2, KVVWWKVIIKVL]
Value: −3.5
--
Substance: WVGVIIKWGLKL-NH2 [Peptide 3018, WVGVIIKWGLKL]
Value: −0.3
--
Substance: AVKWLGWILAKK-NH2 [Peptide 3016, AVKWLGWILAKK]
Value: 0.8
--
Substance: WWIKIVVIRVRR-NH2 [IBFmax-13, WWIKIVVIRVRR]
Value: −2
--
Substance: IVKKVKLIWGVK-NH2 [MILBFmax-13, IVKKVKLIWGVK]
Value: −3.2
--
Substance: IQLKLIWVKRKW-NH2 [MILBFmax5, IQLKLIWVKRKW]
Value: −1.3
--
Substance: KIQRRAWKQWRK-NH2 [Peptide 3014, KIQRRAWKQWRK]
Value: −3.7
--
Substance: VRLIVAVRIWRR-NH2 [Peptide 1018, VRLIVAVRIWRR, reference compound]
Value: 21.8
--
Substance: KVQIIKQLIAKK-NH2 [BFmax-7, KVQIIKQLIAKK]
Value: −3.9
--
Substance: QLARLARVVWGL-NH2 [Peptide 3010, QLARLARVVWGL]
Value: −2.4
--
Substance: LWQLWLKLKLKG-NH2 [Peptide 3013, LWQLWLKLKLKG]
Value: 14.1
--
Substance: RVLIKWKKVIVV-NH2 [IBFmax-8, RVLIKWKKVIVV]
Value: −1.8
--
Substance: ALAIKVWIKILQ-NH2 [Imax-7, ALAIKVWIKILQ]
Value: −1.1

###

Listing: MBIC of selected substances
# System: Staphylococcus pseudintermedius (Sp)
# Type: cell-based
No end group written: not given here.

Substance: LAGLIVKWAGVR-NH2 [Peptide 3017, LAGLIVKWAGVR]
MBIC: 64 µg/mL
//
Substance: AVAKWALKLWKQ-NH2 [Peptide 3009, AVAKWALKLWKQ]
MBIC: 8 µg/mL
//
Substance: AVKWLGWILAKK-NH2 [Peptide 3016, AVKWLGWILAKK]
MBIC: 8 µg/mL
//
Substance: KIVIRIILQVIK-NH2 [Peptide 3015, KIVIRIILQVIK]
MBIC: 8 µg/mL
//
Substance: LWQLWLKLKLKG-NH2 [Peptide 3013, LWQLWLKLKLKG]
MBIC: 1 µg/mL
//
Substance: QLARLARVVWGL-NH2 [Peptide 3010, QLARLARVVWGL]
MBIC: 64 µg/mL

###

# System: S. aureus (MRSA SAP0017)
# Format: cell-based, Staphylococcus aureus
# Test Parameters: SPOT synthesized control peptides, determined as in Table 5; Table 7
Non-standard residues stand in square brackets, D forms with d. No end group written: not given here. Agb = N=C(N)NCC[C@H](N)C(=O)O; Orn = NCCC[C@H](N)C(=O)O; Dab = NCC[C@H](N)C(=O)O
Experimental Endpoint: % Biofilm Inhibition (%)

Substance: C95 (V[Dab]LIVAVRIWRR) [Peptide C95]
Experimental Endpoint: % Biofilm Inhibition
Value: 71

Substance: C29 (VIAKIVLLRAGL) [Peptide C29]
Experimental Endpoint: % Biofilm Inhibition
Value: 100

Substance: C49 (WLKRIVKVVVLK) [Peptide C49]
Experimental Endpoint: % Biofilm Inhibition
Value: 103

Substance: C107 (VRL[Orn]VAVRIWRR) [Peptide C107]
Experimental Endpoint: % Biofilm Inhibition
Value: 71

Substance: C38 (RIWRRAWKARWK) [Peptide C38]
Experimental Endpoint: % Biofilm Inhibition
Value: 102

Substance: C70 (VR[Agb]IVAVRIWRR) [Peptide C70]
Experimental Endpoint: % Biofilm Inhibition
Value: 98

Substance: C98 (VRLI[Dab]AVRIWRR; not fully specified (C-terminus)) [Peptide C98]
Experimental Endpoint: % Biofilm Inhibition
Value: 103
